# System: Saccharomyces cerevisiae
# experiment.notes: protein stability index of tFT-peptide fusion (C-terminal peptide) (PSI (0-1 scale)); higher = more stable (slower turnover)
# condition.set: genetic background: cdc34-1; temperature: 37 C
Label rule met when protein stability index is at or above 0.6; otherwise label rule not met.

VVCLCEYRLHIF; rule not met
EWGLGEIVVKVA; rule not met
QNVKRIVRHMLT; rule met
SIIRHLFHPSST; rule met
VPTRRRGNRRPA; rule met

[ask] Identify whether the reported protein stability index of the following sequence is 0.6 or greater: GGWSLFCIVVVV
[reply] rule not met

[ask] Same thing, different sequence: FILSLSFVFSRP
[reply] rule not met

[ask] Same thing, different sequence: GVCRFFCLVFCS
[reply] rule not met

[ask] Same thing, different sequence: WSCVGLWGRFCC
[reply] rule met

[ask] Same thing, different sequence: PPTRVPVTLFLV
[reply] rule not met

[ask] Same thing, different sequence: PYPPTSLPPTWQ
[reply] rule met

[ask] Same thing, different sequence: AGTLLLGYGILA
[reply] rule not met

[ask] Same thing, different sequence: LCVVVICCLMAR
[reply] rule not met

[ask] Same thing, different sequence: FFSLRRAVTVSA
[reply] rule not met

[ask] Same thing, different sequence: SVPRTRAPRLIS
[reply] rule met

###

# System: Saccharomyces cerevisiae
# experiment.notes: protein stability index of tFT-peptide fusion (C-terminal peptide) (PSI (0-1 scale)); higher = more stable (slower turnover)
# condition.set: genetic background: wild type; temperature: 30 C
experimental.readout: protein stability index
Please respond with just the number, no unit label.

CTFFCICVFFLL; 0.281

[ask] Param item = SFTPPRVCLCFS ; retrieve measured protein stability index.
[reply] 0.3

[ask] Same thing, different sequence: GLFLYCCLVSLL
[reply] 0.193

[ask] Same thing, different sequence: VQVLVAIMDGRM
[reply] 0.37

[ask] Same thing, different sequence: LYVLNILSFVCV
[reply] 0.117

[ask] Same thing, different sequence: VFFCLFVLFLSG
[reply] 0.282

[ask] Same thing, different sequence: LCLLCWIPCSFR
[reply] 0.466

[ask] Same thing, different sequence: CRLCVFGVWFCG
[reply] 0.412

[ask] Same thing, different sequence: FPYARHLSVLLL
[reply] 0.392

[ask] Same thing, different sequence: YVIGLLFVVSGV
[reply] 0.251

[ask] Same thing, different sequence: FGVSLFLPLSVV
[reply] 0.308

[ask] Same thing, different sequence: LQIKSFTSQRLA
[reply] 0.0902

[ask] Same thing, different sequence: SSVFRLKGLMFL
[reply] 0.277

[ask] Same thing, different sequence: LSFLALLLFFRI
[reply] 0.372

[ask] Same thing, different sequence: NAPSAIQKNKKC
[reply] 0.281

[ask] Same thing, different sequence: VGTIVLTCIEVN
[reply] 0.187

[ask] Same thing, different sequence: VVFSLLLWLFIS
[reply] 0.168

[ask] Same thing, different sequence: RWGLFIGIVIGF
[reply] 0.217

[ask] Same thing, different sequence: FLRLSFLIFPLH
[reply] 0.409

###

# System: Saccharomyces cerevisiae
# experiment.notes: protein stability index of tFT-peptide fusion (C-terminal peptide) (PSI (0-1 scale)); higher = more stable (slower turnover)
# condition.set: genetic background: das1 deletion; temperature: 30 C
Label Y when protein stability index is at or above 0.7; otherwise label N.

YIWKYYADSLFE [CSM2 C-terminal 12 aa]; Y
RLSRWFNETENI [MEI4 C-terminal 12 aa]; Y
RSTNGRPQRGYR [YLR326W C-terminal 12 aa]; N
DEWLNLHINIVE [SHU2 C-terminal 12 aa]; Y
NHPSNDSGNEKN [HCM1 C-terminal 12 aa]; N
VDMKWGSFPIFQ [YPR1 C-terminal 12 aa]; Y

[ask] Identify whether the reported protein stability index of the following sequence is 0.7 or greater: YWILKSNPTNES [YNL092W C-terminal 12 aa]
[reply] Y

[ask] Same thing, different sequence: VHLEKKKDEDKK [UBX7 C-terminal 12 aa]
[reply] N

[ask] Same thing, different sequence: LKAVCPPEAGFD [VEL1 C-terminal 12 aa]
[reply] Y

[ask] Same thing, different sequence: KKSKNRNTSLRP [SIP5 C-terminal 12 aa]
[reply] Y

[ask] Same thing, different sequence: YYYYNKYKEFYP [TMH11 C-terminal 12 aa]
[reply] Y

[ask] Same thing, different sequence: IDTWEIKFNELF [YLR287C C-terminal 12 aa]
[reply] Y

[ask] Same thing, different sequence: KWGMEDSPPPYH [MDM34 C-terminal 12 aa]
[reply] Y

[ask] Same thing, different sequence: PYKSTELRSVAN [YDL187C C-terminal 12 aa]
[reply] N
